Overview of recorded refractive index for various molecules
- ASSAY_METHOD_TEXT: refractive index (Na D-line) (dimensionless); xn = mol fraction of the nth substance listed
- EXPERIMENTAL_SETUP: 288.15 K; 100.5 kPa; Liquid; Standard Abbe refractometry; x1 = 0.45
QUANTITY_KIND: refractive index

MOLECULE	REPORTED_RESULT
CCOC(=O)c1ccccc1 [ethyl benzoate] + CCO	1.46145
CC(=O)OCCC(C)C [3-methylbutyl ethanoate] + CCO	1.38996
CCCCCC(=O)OCC [ethyl hexanoate] + CCO	1.39553
CCCCCCCC(=O)OCC [ethyl octanoate] + CCO	1.40481
CCOC(=O)Cc1ccccc1 [ethyl phenylacetate] + CCO	1.45856
CCCC(=O)OCCC(C)C [3-methylbutyl butanoate] + CCO	1.39871

* * *

Overview of recorded refractive index for various compounds
- ASSAY_METHOD_TEXT: refractive index (Na D-line) (dimensionless); xn = mol fraction of the nth substance listed
- EXPERIMENTAL_SETUP: 298.15 K; 100.5 kPa; Liquid; Standard Abbe refractometry; x1 = 0.3

COMPOUND	refractive index
CCCC(=O)OCCC(C)C [3-methylbutyl butanoate] + CCO	1.38709
CCOC(=O)Cc1ccccc1 [ethyl phenylacetate] + CCO	1.43347
CCCCCC(=O)OCC [ethyl hexanoate] + CCO	1.38429
CCOC(=O)c1ccccc1 [ethyl benzoate] + CCO	1.43498
CC(=O)OCCC(C)C [3-methylbutyl ethanoate] + CCO	1.37954
CCCCCCCC(=O)OCC [ethyl octanoate] + CCO	1.39252

* * *

Overview of recorded refractive index for various molecules
- ASSAY_METHOD_TEXT: refractive index (Na D-line) (dimensionless); xn = mol fraction of the nth substance listed
- EXPERIMENTAL_SETUP: 298.15 K; 100.5 kPa; Liquid; Standard Abbe refractometry; x1 = 0.1
± gives the expanded uncertainty stated by the source.

MOLECULE	refractive index
CCOC(=O)Cc1ccccc1 [ethyl phenylacetate] + CCO	1.3918 ± 0.00032
CCCC(=O)OCCC(C)C [3-methylbutyl butanoate] + CCO	1.37182 ± 0.00031
CCCCCCCC(=O)OCC [ethyl octanoate] + CCO	1.37462 ± 0.00031
CC(=O)OCCC(C)C [3-methylbutyl ethanoate] + CCO	1.36787 ± 0.00031
CCCCCC(=O)OCC [ethyl hexanoate] + CCO	1.37034 ± 0.00031
CCOC(=O)c1ccccc1 [ethyl benzoate] + CCO	1.39165 ± 0.00032

* * *

Overview of recorded refractive index for various compounds
- ASSAY_METHOD_TEXT: refractive index (Na D-line) (dimensionless); xn = mol fraction of the nth substance listed
- EXPERIMENTAL_SETUP: 288.15 K; 100.5 kPa; Liquid; Standard Abbe refractometry; x1 = 0.5

COMPOUND	refractive index
CCOC(=O)Cc1ccccc1 [ethyl phenylacetate] + CCO	1.46406
CC(=O)OCCC(C)C [3-methylbutyl ethanoate] + CCO	1.39164
CCCCCC(=O)OCC [ethyl hexanoate] + CCO	1.3974
CCCCCCCC(=O)OCC [ethyl octanoate] + CCO	1.40692
CCOC(=O)c1ccccc1 [ethyl benzoate] + CCO	1.4675
CCCC(=O)OCCC(C)C [3-methylbutyl butanoate] + CCO	1.40065
